The measurements presented in this section are drawn from ChEMBL document CHEMBL3808316.

# target.of.assay: Kappa-type opioid receptor (Homo sapiens)
# Sequence (P41145 whole entry): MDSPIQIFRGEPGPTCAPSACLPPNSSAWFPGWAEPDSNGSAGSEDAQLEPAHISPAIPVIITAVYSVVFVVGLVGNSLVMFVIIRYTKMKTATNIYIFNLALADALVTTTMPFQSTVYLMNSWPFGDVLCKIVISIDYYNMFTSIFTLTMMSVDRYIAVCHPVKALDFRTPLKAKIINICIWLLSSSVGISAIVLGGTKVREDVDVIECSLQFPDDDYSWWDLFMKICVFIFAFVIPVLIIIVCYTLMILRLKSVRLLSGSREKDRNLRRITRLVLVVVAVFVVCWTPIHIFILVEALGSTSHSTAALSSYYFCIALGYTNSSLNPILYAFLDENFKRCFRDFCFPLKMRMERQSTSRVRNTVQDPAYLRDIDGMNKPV
# method.summary: Displacement of [3H]diprenorphine from human kappa opioid receptor expressed in CHO cell membranes at 10^-6 M after 30 mins by liquid scintillation counting analysis
value.type: inhibition (%)

compound | value.type | test.result
CCCC[N+]1(CC2c3ccccc3CCN2C(=O)C2CC(=O)c3ccc(Cl)cc32)CCCC1.[I-] (centres undefined) | inhibition | 100
O=C1CC(C(=O)N2CCc3ccccc3C2C[N+]2(Cc3ccc(Cl)cc3)CCCC2)c2cc(Cl)ccc21 (centres undefined) | inhibition | 31.3
COc1ccc(C[N+]2(CC3c4ccccc4CCN3C(=O)C3CC(=O)c4ccc(Cl)cc43)CCCC2)cc1 (centres undefined) | inhibition | 3.9
CC[N+]1(CC2c3ccccc3CCN2C(=O)C2CC(=O)c3ccc(Cl)cc32)CCCC1 (centres undefined) | inhibition | 31.9
O=C1CC(C(=O)N2CCc3ccccc3C2C[N+]2(CC3CC3)CCCC2)c2cc(Cl)ccc21 (centres undefined) | inhibition | 98.8
C=CC[N+]1(CC2c3ccccc3CCN2C(=O)C2CC(=O)c3ccc(Cl)cc32)CCCC1 (centres undefined) | inhibition | 100
COc1ccc2c(c1)C(C[N+]1(C)CCCC1)N(C(=O)C1CC(=O)c3ccc(Cl)cc31)CC2 (centres undefined) | inhibition | 0
O=C1CC(C(=O)N2CCc3ccccc3C2C[N+]2(Cc3ccc(Cl)cc3Cl)CCCC2)c2cc(Cl)ccc21 (centres undefined) | inhibition | 12.1
COc1ccc2c(c1)CCN(C(=O)C1CC(=O)c3ccc(Cl)cc31)C2C[N+]1(C)CCCC1 (centres undefined) | inhibition | 50

###

These records show Ki for Kappa-type opioid receptor (Homo sapiens).

compound | unit.label | Ki
O=C1CC(C(=O)N2CCc3ccccc3C2C[N+]2(CC3CC3)CCCC2)c2cc(Cl)ccc21 (stereo not given) | nM | 3.56
O=C1CC(C(=O)N2CCc3ccccc3C2CN2CCCC2)c2cc(Cl)ccc21 (stereo not given) | nM | 0.033
C[N+]1(CC2c3ccc(O)cc3CCN2C(=O)C2CC(=O)c3ccc(Cl)cc32)CCCC1 (stereo not given) | nM | 231
CCCC[N+]1(CC2c3ccccc3CCN2C(=O)C2CC(=O)c3ccc(Cl)cc32)CCCC1.[I-] (stereo not given) | nM | 0.94
C=CC[N+]1(CC2c3ccccc3CCN2C(=O)C2CC(=O)c3ccc(Cl)cc32)CCCC1 (stereo not given) | nM | 1.86

###

# target.of.assay: UniProt P33535
# Sequence (P33535 whole entry): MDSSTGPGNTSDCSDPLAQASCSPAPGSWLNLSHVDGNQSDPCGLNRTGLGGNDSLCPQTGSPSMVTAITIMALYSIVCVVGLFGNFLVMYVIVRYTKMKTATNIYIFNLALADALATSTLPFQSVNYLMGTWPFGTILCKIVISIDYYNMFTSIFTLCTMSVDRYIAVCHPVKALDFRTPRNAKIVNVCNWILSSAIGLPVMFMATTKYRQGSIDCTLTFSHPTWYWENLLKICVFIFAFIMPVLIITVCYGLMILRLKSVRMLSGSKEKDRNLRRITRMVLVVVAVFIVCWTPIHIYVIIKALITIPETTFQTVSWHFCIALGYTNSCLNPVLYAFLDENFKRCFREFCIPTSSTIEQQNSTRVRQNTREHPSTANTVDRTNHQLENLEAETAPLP
# method.summary: Displacement of [3H]diprenorphine from rat mu opioid receptor expressed in CHO cell membranes at 10^-5 M after 30 mins by liquid scintillation counting analysis
Decision: inhibition >= 30% yields true, all other cases yield false.

compound | group
C=CC[N+]1(CC2c3ccccc3CCN2C(=O)C2CC(=O)c3ccc(Cl)cc32)CCCC1 (stereo unspecified) | true
O=C1CC(C(=O)N2CCc3ccccc3C2C[N+]2(CC3CC3)CCCC2)c2cc(Cl)ccc21 (stereo unspecified) | true
COc1ccc2c(c1)C(C[N+]1(C)CCCC1)N(C(=O)C1CC(=O)c3ccc(Cl)cc31)CC2 (stereo unspecified) | false
COc1ccc2c(c1)CCN(C(=O)C1CC(=O)c3ccc(Cl)cc31)C2C[N+]1(C)CCCC1 (stereo unspecified) | false
C[N+]1(CC2c3ccccc3CCN2C(=O)C2CC(=O)c3ccc(Cl)cc32)CCCC1 (stereo unspecified) | false
O=C1CC(C(=O)N2CCc3ccccc3C2C[N+]2(Cc3ccc(F)cc3)CCCC2)c2cc(Cl)ccc21 (stereo unspecified) | false
C[N+]1(CC2c3cc(F)ccc3CCN2C(=O)C2CC(=O)c3ccc(Cl)cc32)CCCC1 (stereo unspecified) | false
CC[N+]1(CC2c3ccccc3CCN2C(=O)C2CC(=O)c3ccc(Cl)cc32)CCCC1 (stereo unspecified) | false
CCCC[N+]1(CC2c3ccccc3CCN2C(=O)C2CC(=O)c3ccc(Cl)cc32)CCCC1.[I-] (stereo unspecified) | true
C[N+]1(CC2c3ccc(O)cc3CCN2C(=O)C2CC(=O)c3ccc(Cl)cc32)CCCC1 (stereo unspecified) | true
O=C1CC(C(=O)N2CCc3ccccc3C2C[N+]2(Cc3ccc(Cl)cc3Cl)CCCC2)c2cc(Cl)ccc21 (stereo unspecified) | false
